The values you see were collected from ChEMBL document CHEMBL1201862.

Kindly state GI50 for each of the entries shown.
Tested on: EKVX
test description: NCI tumour cell line growth inhibition, 48 h
Activity calls are given as the source filed them. No stated cut-off is given here; in the data, active = GI50 up to about 1.1 µM and inactive = higher.

Query Cc1nc2ccccc2n1Cc1nnc(-c2ccccc2)o1 on EKVX; GI50 returned: > 100 µM (inactive)

Query CC(NNC(=O)c1cc[n+]([BH2-]C#N)cc1)c1ccccc1F (centres undefined) on EKVX; GI50 returned: > 100 µM (inactive)

Query O=C1c2ccccc2-c2[nH]c3cn[nH]c(=O)c3c21 on EKVX; GI50 returned: 79.4 µM (inactive)

Query CC(=O)O[C@]12CCCCC1C1(O)C(O)CCCCC12 (some centres undefined) on EKVX; GI50 returned: > 100 µM (inactive)

Query COc1ccc(/C=c2/sc3n(c2=O)NC2(CCC(C)CC2)NN=3)cc1 (centres undefined) on EKVX; GI50 returned: > 100 µM (inactive)

Query Cc1cc(-c2nc3cccc(O)c3s2)ccc1N on EKVX; GI50 returned: 15.7 µM (inactive)

Query CC(CC[C@@]1(O)OC2C[C@H]3[C@@H]4CC[C@H]5CC(OC6OC(CO)C(OC7OC(CO)C(O)C(OC8OCC(O)C(O)C8O)C7OC7OC(CO)C(O)C(O)C7O)C(O)C6O)[C@H](O)CC5(C)[C@H]4CCC3(C)C2[C@@H]1C)COC1OC(CO)C(O)C(O)C1O (some centres undefined) on EKVX; GI50 returned: 2.38 µM (inactive)

Query CN(C)c1ccc(/C=C2\CNC/C(=C\c3ccc(N(C)C)cc3)C2=O)cc1 on EKVX; GI50 returned: > 100 µM (inactive)

Query CN(C)c1ccc2c(=O)c3ccccc3oc2n1 on EKVX; GI50 returned: 35 µM (inactive)

---

Tested on: LOX IMVI
test description: NCI tumour cell line growth inhibition, 48 h
Active and inactive are the calls of the source. No stated cut-off is given here; in the data, active = GI50 up to about 1.1 µM and inactive = higher.
Kindly state GI50 for each of the entries shown.

Query O=c1c2c(c1=O)C1(SCCCS1)c1cc(Cl)ccc1O2 on LOX IMVI; GI50 returned: > 100 µM (inactive)

Query CN(C)CCCNC(CC#N)CCC#N (stereo not drawn) on LOX IMVI; GI50 returned: > 10 µM (inactive)

Query OCCNC1c2cc(Cl)ccc2-c2c(Cl)cc(Cl)cc21 (stereo not drawn) on LOX IMVI; GI50 returned: 34.5 µM (inactive)

Query CNCC(=O)Nc1ccc2c(c1)C(=O)c1ccc(NC(=O)CNC)cc1C2=O on LOX IMVI; GI50 returned: 1.68 µM (inactive)

Query CN1C/C(=C\c2cccs2)C(O)/C(=C/c2cccs2)C1 (stereo not drawn) on LOX IMVI; GI50 returned: > 100 µM (inactive)

Query O=C(O)Cc1ccc2c(c1)/C(=C1/Nc3ccccc3C1=O)C(=O)N2 on LOX IMVI; GI50 returned: 20 µM (inactive)

Query Nc1ncnc2c1ncn2C1C=CC(CP(=O)(O)O)C1 (stereo not drawn) on LOX IMVI; GI50 returned: > 100 µM (inactive)

Query COc1cc(C2C(Cl)C(=O)N2n2cnc3ccccc3c2=O)ccc1O (stereo not drawn) on LOX IMVI; GI50 returned: > 100 µM (inactive)

Query CC(C)(C)c1cc(C2COC(=O)COCC(=O)OCCOCCOCCO2)cc(C(C)(C)C)c1O (stereo not drawn) on LOX IMVI; GI50 returned: 31 µM (inactive)

Query Nc1nc(Cl)nc2c1ncn2C1CCC(CO)O1 (stereo not drawn) on LOX IMVI; GI50 returned: > 100 µM (inactive)

Query O=C(OCN1C(=O)C2C3C=CC(C2C1=O)C1C2C(=O)N(COC(=O)C4CCCN4)C(=O)C2C31)C1CCCN1 (stereo not drawn) on LOX IMVI; GI50 returned: 35.9 µM (inactive)

Query Fc1cccc(F)c1C1SCc2nc3cc4ccccc4cc3n21 (stereo not drawn) on LOX IMVI; GI50 returned: 32.9 µM (inactive)

Query CCc1cccc(C)c1NC(=O)CC(=O)NNC(N)=S on LOX IMVI; GI50 returned: > 100 µM (inactive)

Query O=C1N(c2ccccc2)C(=S)/C(=C/c2ccc(Cl)cc2)N1c1ccc(Cl)cc1 on LOX IMVI; GI50 returned: 22.2 µM (inactive)

Query O=C(O)CC(NC(=O)/C(=C/c1ccccc1)NC(=O)c1ccccc1)C(=O)O (stereo not drawn) on LOX IMVI; GI50 returned: > 100 µM (inactive)

Query COc1cc(/C=N/N=C(\N)NO)c(Cl)cc1O on LOX IMVI; GI50 returned: 32.7 µM (inactive)

Query O=C(O)Cc1cc(Cl)ccc1O on LOX IMVI; GI50 returned: > 100 µM (inactive)

Query CC1(Br)C(=O)NC(=O)N(C2CC(N=[N+]=[N-])C(CO)O2)C1N=[N+]=[N-] (stereo not drawn) on LOX IMVI; GI50 returned: > 100 µM (inactive)

Query CC(=O)/C(=C\c1cccc([N+](=O)[O-])c1)C(=O)Nc1ccccc1C on LOX IMVI; GI50 returned: 60.1 µM (inactive)

Query Cc1ccc(S(=O)(=O)c2ccc(C)cc2[N+](=O)[O-])c([N+](=O)[O-])c1 on LOX IMVI; GI50 returned: > 100 µM (inactive)

Query CC1(C)CC(O)C(C)(C)[C@@H](O)C1 (stereo partly drawn) on LOX IMVI; GI50 returned: > 100 µM (inactive)

Query COC(=O)C(C(=O)C(=O)Nc1c(C)cccc1C)c1cnc2ccccc2n1 (stereo not drawn) on LOX IMVI; GI50 returned: > 100 µM (inactive)

Query COc1ccc([Se]c2ccc(OC)cc2)cc1 on LOX IMVI; GI50 returned: > 100 µM (inactive)
